This collection of values is drawn from PubChem BioAssay AID1963422.

Test system: 463943-066-T-J2-PDC complex spheroid growth
Assay: Anticancer human tumor 463943-066-T-J2-PDC patient-derived colon adenocarcinoma cell line growth inhibition [Asc]
Conditions: curve of first compound; second compound 0.0949 µM
Description: Multicellular complex tumor spheroid response to apoptosis pathway targeting inhibitors Alrizomadlin, Pelcitoclax, and Dasminapant in combination with a variety of drugs and investigational agents in selected tumor cell lines […] Compounds. […] If the clinical Cmax for an agent had not been determined, the highest concentration tested was 10 microM. […]
pIC50: −log10 of the molar value.
// reported pIC50 per item

[[record]]
compound = "C=CC(=O)N1CCN(c2nc(=O)n(-c3c(C)ccnc3C(C)C)c3nc(-c4c(O)cccc4F)c(F)cc23)C(C)C1 (configuration not stated) + CCN1C(C(=O)NC23CCC(C(=O)O)(CC2)CC3)C(c2cccc(Cl)c2F)C2(C(=O)Nc3cc(Cl)ccc32)C12CCCCC2"
subject_of_test = "463943-066-T-J2-PDC complex spheroid growth"
obs_value = "< 5.00"


# ---- query compound ----
[in] Item under review: C#Cc1c(F)ccc2cc(O)cc(-c3ncc4c(N5CC6CCC(C5)N6)nc(OCC56CCCN5CC(F)C6)nc4c3F)c12 (configuration not stated) + CCN1C(C(=O)NC23CCC(C(=O)O)(CC2)CC3)C(c2cccc(Cl)c2F)C2(C(=O)Nc3cc(Cl)ccc32)C12CCCCC2 . Reported pIC50?
[out] < 5.00

====

System: 463943-066-T-J2-PDC complex spheroid growth
Assay: Anticancer human tumor 463943-066-T-J2-PDC cell line growth inhibition [Asc];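 further: compound exposure lasted 7 days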;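 on viability, T/C: 100% = DMSO vehicle control wells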
Details: second compound 0.00316 µM; first compound 0.316 µM; stronger effect = lower value
Excerpt: Multicellular complex tumor spheroid response to apoptosis pathway targeting inhibitors Alrizomadlin, Pelcitoclax, and Dasminapant in combination with a variety of drugs and investigational agents in selected tumor cell lines […] Compounds. […] If the clinical Cmax for an agent had not been determined, the highest concentration tested was 10 microM. […]
// reported viability, T/C per item

Recorded viability, T/C, per entry:
[[record]]
compound = "O=C(c1cc(Cc2n[nH]c(=O)c3ccccc23)ccc1F)N1CCN(C(=O)C2CC2)CC1 + CNC(C)C(=O)NC1CN(S(=O)(=O)c2cccc(S(=O)(=O)N3CCC4CCC(C(=O)NC(c5ccccc5)c5ccccc5)N4C(=O)C(NC(=O)C(C)NC)C3)c2)CCC2CCC(C(=O)NC(c3ccccc3)c3ccccc3)N2C1=O"
obs_value = "96.9%"

[[record]]
compound = "CCN1CCN(Cc2ccc(Nc3ncc(F)c(-c4cc(F)c5nc(C)n(C(C)C)c5c4)n3)nc2)CC1 + CNC(C)C(=O)NC1CN(S(=O)(=O)c2cccc(S(=O)(=O)N3CCC4CCC(C(=O)NC(c5ccccc5)c5ccccc5)N4C(=O)C(NC(=O)C(C)NC)C3)c2)CCC2CCC(C(=O)NC(c3ccccc3)c3ccccc3)N2C1=O"
obs_value = "109%"

[[record]]
compound = "O=C(c1ccc(F)c(F)c1Nc1ccc(I)cc1F)N1CC(O)([C@@H]2CCCCN2)C1 + CNC(C)C(=O)NC1CN(S(=O)(=O)c2cccc(S(=O)(=O)N3CCC4CCC(C(=O)NC(c5ccccc5)c5ccccc5)N4C(=O)C(NC(=O)C(C)NC)C3)c2)CCC2CCC(C(=O)NC(c3ccccc3)c3ccccc3)N2C1=O"
obs_value = "40.4%"


# ---- query compound ----
[in] Item under review: C#Cc1c(F)ccc2cc(O)cc(-c3ncc4c(N5CC6CCC(C5)N6)nc(OCC56CCCN5CC(F)C6)nc4c3F)c12 (centres undefined) + CNC(C)C(=O)NC1CN(S(=O)(=O)c2cccc(S(=O)(=O)N3CCC4CCC(C(=O)NC(c5ccccc5)c5ccccc5)N4C(=O)C(NC(=O)C(C)NC)C3)c2)CCC2CCC(C(=O)NC(c3ccccc3)c3ccccc3)N2C1=O . Reported viability, T/C?
[out] 94.3%
